# ASSAY PROCEDURE: Annexin V-FITC/PI apoptosis assay by flow cytometry, THP-1
# Assay type: cell-based, human
# CONDITION DETAILS: human, THP-1 cells; THP-1, 2.5 μM, 18 h, representative dot plot; read-out: quadrant I: viable cells
PROPERTY MEASURED: viability at 18 h, 2.5 µM

COMPOUND	PROPERTY MEASURED	ASSAY VALUE
O=C(Nc1cccc([N+](=O)[O-])c1)c1cc2ccccc2cc1O [Compound 2]	viability at 18 h, 2.5 µM	90.2%

---

# ASSAY PROCEDURE: Annexin V-FITC/PI apoptosis assay by flow cytometry, THP-1
# Assay type: cell-based, human
# CONDITION DETAILS: human, THP-1 cells; THP-1, 5 μM, 12 h, representative dot plot; read-out: quadrant I: viable cells
PROPERTY MEASURED: viability at 12 h, 5 µM (%)

COMPOUND	ASSAY VALUE
O=C(Nc1cccc([N+](=O)[O-])c1)c1cc2ccccc2cc1O	85.8
CC[C@@]1(O)C(=O)OCc2c1cc1n(c2=O)Cc2cc3ccccc3nc2-1 [camptothecin, reference compound]	55.8

---

# ASSAY PROCEDURE: Annexin V-FITC/PI apoptosis assay by flow cytometry, THP-1
# Format: cell-based, human
# CONDITION DETAILS: human, THP-1 cells; THP-1, 5 μM, 18 h, representative dot plot; read-out: quadrant I: viable cells
PROPERTY MEASURED: viability at 18 h, 5 µM (%)

MOLECULE	PROPERTY MEASURED	ASSAY VALUE
CC[C@@]1(O)C(=O)OCc2c1cc1n(c2=O)Cc2cc3ccccc3nc2-1 [camptothecin, reference compound]	viability at 18 h, 5 µM	53.8
O=C(Nc1cccc([N+](=O)[O-])c1)c1cc2ccccc2cc1O	viability at 18 h, 5 µM	76.7

---

# ASSAY PROCEDURE: Erythrosin B dye exclusion viability test, MCF-7
# Type: cell-based
# CONDITION DETAILS: human, MCF-7 cells; erythrosin B exclusion test, 24 h, mean ± SD; read-out: MCF-7 LC50
The entries below come with measured CC50 at 24 h values attached.

SMILES CODE	CC50 at 24 h
O=C(Nc1ccccc1[N+](=O)[O-])c1cc2ccccc2cc1O	> 20 µM
O=C(Nc1ccccc1[N+](=O)[O-])c1c(O)ccc2ccccc12	> 20 µM
O=C(Nc1cccc([N+](=O)[O-])c1)c1c(O)ccc2ccccc12	> 20 µM
O=C(Nc1cccc([N+](=O)[O-])c1)c1cc2ccccc2cc1O	> 20 µM
O=C(Nc1ccc([N+](=O)[O-])cc1)c1c(O)ccc2ccccc12	> 20 µM
O=C(Nc1ccc([N+](=O)[O-])cc1)c1cc2ccccc2cc1O	12.9 µM

---

# ASSAY PROCEDURE: Annexin V-FITC/PI apoptosis assay by flow cytometry, THP-1
# Type: cell-based, human
# CONDITION DETAILS: human, THP-1 cells; THP-1, 2.5 μM, 12 h, representative dot plot; read-out: quadrant I: viable cells
PROPERTY MEASURED: viability at 12 h, 2.5 µM (%)

SMILES CODE	PROPERTY MEASURED	ASSAY VALUE
O=C(Nc1cccc([N+](=O)[O-])c1)c1cc2ccccc2cc1O	viability at 12 h, 2.5 µM	92.1
